Data provenance is ChEMBL document CHEMBL1201862.

# Test system: U-251
# method: NCI tumour cell line growth inhibition, 48 h
Active and inactive are the calls of the source. Rule as the data show it: active = GI50 up to about 1.1 µM and inactive = higher.
Possible outcomes: YES (active), NO (inactive)

>>> discrete_label("CCCCCCCCCCCC1NC(N)=NC(CCCO)=C1C(=O)OC (stereo not given)")
"NO"
>>> discrete_label("COc1ccc(CC(COS(=O)(=O)c2ccc(C)cc2)NS(=O)(=O)c2ccc(C)cc2)cc1 (stereo not given)")
"NO"
>>> discrete_label("Oc1ncnc2c1nnn2CCCn1nnc2c(O)ncnc21")
"NO"
>>> discrete_label("CCOC(=O)C(C)N1C(=O)c2ccccc2S1(=O)=O (stereo not given)")
"NO"
>>> discrete_label("CC(=O)c1cccn1/C=C(\\OC(=O)OC(C)(C)C)c1ccc[nH]1")
"NO"
>>> discrete_label("CCN(CC)C(=S)SC [METHYLDIETHYL CARBAMODITHIOATE]")
"NO"
>>> discrete_label("CCNc1cc2c(cc1O)CC[C@@H]1[C@@H]2CC[C@]2(C)[C@@H](O)CC[C@@H]12")
"NO"
>>> discrete_label("CCc1cc(=O)n(/C(C)=C/c2ccccc2)n1C")
"NO"
>>> discrete_label("COc1cccc2c1C(=O)c1c(O)c3c(c(O)c1C2=O)C[C@@](O)(C(C)=O)C[C@@H]3OC1OC(C)C(O)C(N)C1Br (stereo not given in full)")
"YES"
>>> discrete_label("CC(C)C1=C2CCC3(C)C(CCC4C5C6OCC5(CCC6(C)C)CCC43C)C2(C)CC1 (stereo not given)")
"NO"

====

List of GI50 values.
# System: RPMI-8226
# method: NCI tumour cell line growth inhibition, 48 h
The source made the active and inactive calls. Cut-off read from the data, not from the text of the source: active = GI50 up to about 1.1 µM and inactive = higher.
attribute_measured: GI50

>>> result("CC(C)OC(=O)Nc1c([N+](=O)[O-])cc(C(F)(F)F)cc1[N+](=O)[O-]")
"> 100 µM (inactive)"
>>> result("O=C(O)c1cc(N(Cc2ccccc2O)Cc2cc(O)ccc2O)ccc1O")
"> 100 µM (inactive)"
>>> result("[O-][S+](Cc1ccccc1)c1nc2ccccc2nc1-c1cccs1 (stereo not given)")
"17.9 µM (inactive)"
>>> result("CCCCCCCC(=O)NS(=O)(=O)c1ccccc1")
"> 100 µM (inactive)"
>>> result("CCN(CC)C(=S)SC [METHYLDIETHYL CARBAMODITHIOATE]")
"> 100 µM (inactive)"

====

Each entry below carries its reported GI50.
# Test system: RXF 631
# method: NCI tumour cell line growth inhibition, 48 h
Calls of active or inactive are those of the source. Rule as the data show it: active = GI50 up to about 1.1 µM and inactive = higher.
attribute_measured: GI50

>>> result("O=[N+]([O-])c1nccn1COCCO")
"> 100 µM (inactive)"
>>> result("CC[C@@H](C)[C@@H]1NC(=O)C(C(C)=O)=C1O")
"15.1 µM (inactive)"
>>> result("CC(C)(C)C1=CC(=C(P(=O)(O)O)P(=O)(O)O)C=C(C(C)(C)C)C1=O")
"> 50 µM (inactive)"
>>> result("O=C(CC1(O)C(=O)Nc2ccccc21)c1ccc(O)cc1 (stereo not drawn)")
"> 100 µM (inactive)"
>>> result("CCOC(=O)C/N=c1\\nc(SC)sc2c(C(=O)OCC)nc(Sc3ccccc3)n12")
"25.3 µM (inactive)"
>>> result("NC1CCC[C@H]1O (stereo partly drawn)")
"> 100 µM (inactive)"
>>> result("CC1=C(O)C(=O)C2C(=O)C1C(C)C2c1ccc(Cl)cc1 (stereo not drawn)")
"> 100 µM (inactive)"
>>> result("O=C1/C(=C/c2ccc(Cl)cc2)CCC1CCN1CCOCC1 (stereo not drawn)")
"46.6 µM (inactive)"

====

# System: KM-20L2
# method: NCI tumour cell line growth inhibition, 48 h
Active and inactive are the calls of the source. No stated cut-off is given here; in the data, active = GI50 up to about 1.1 µM and inactive = higher.
Outcome codes: 1 (active), -1 (inactive)

>>> discrete_label("O=C(CC1Sc2ccccc2NC1=O)Nc1cccc(Cl)c1 (stereo unspecified)")
-1
>>> discrete_label("O=C1c2ccccc2C(=O)c2c1ccc1c3ccccc3n(-c3ccccc3)c21")
-1
>>> discrete_label("O=C(COc1ccc(/C=C/C(=O)c2ccc(Cl)cc2)cc1)Nc1c(Cl)cccc1Cl")
-1
>>> discrete_label("CN1CCc2c1nc(-c1ccc(Cl)cc1)c1c2N(C)CC1")
1
>>> discrete_label("CCCCSC(=CC(=O)c1cccc(C(=O)C=C(SCCCC)SCCCC)n1)SCCCC")
-1
>>> discrete_label("CC(C)(C)OC(=O)C#CC[C@H]1CCCC1/C=C/C(O)=C1/C(=O)NC(CCCNC(=O)OC(C)(C)C)C1=O (stereo partly specified)")
-1
>>> discrete_label("Nc1nc2[nH]cnc2c(=O)[nH]1")
-1
>>> discrete_label("CS(=O)(=O)c1nc(Cl)c(Cl)c(C#N)c1Cl")
-1
>>> discrete_label("CN(O)C(=S)c1ccccc1")
-1
>>> discrete_label("CCCCCCCCCCCCCCCC(=O)OCC1OC(N2C(=O)/C(=N\\NC(N)=S)c3ccc([N+](=O)[O-])cc32)C(OC(C)=O)C1OC(C)=O (stereo unspecified)")
-1
>>> discrete_label("COc1cc(C(C)O)c[n+](Cc2ccccc2)c1 (stereo unspecified)")
-1
>>> discrete_label("Nc1nc2c3nc(Nc4ccccc4)sc3nc(=S)n2c2sc(Nc3ccccc3)nc12")
-1
>>> discrete_label("C=CCSc1ncnc2c1ncn2C1OC(CO)C(O)C1O (stereo unspecified)")
-1
>>> discrete_label("CC1(C)C(=O)C(O)=CC2C1=CCC1C2(C)C(=O)CC2(C)C(C(C)(O)C(=O)CC(O)C(C)(C)O)C(O)CC12C (stereo unspecified)")
-1
>>> discrete_label("O=C(CC(=O)N1N=C(c2ccccc2)C(/N=N/c2ccc(C(=O)O)cc2)C1=O)Nc1ccc(F)cc1 (stereo unspecified)")
-1
>>> discrete_label("CCCCC(C(=O)C(=O)Nc1ccccc1CC)C(=O)C(C)C (stereo unspecified)")
-1

====

# Tested on: ACHN
# method: NCI tumour cell line growth inhibition, 48 h
The source made the active and inactive calls. Rule as the data show it: active = GI50 up to about 1.1 µM and inactive = higher.
Possible outcomes: TRUE for active, FALSE for inactive

>>> discrete_label("CCOC(=O)c1cc2c3c(c(O)c(OC)c2s1)N(C(=O)c1cc2c4c(c(O)c(OC)c2s1)N(C(C)=O)CC4)CC3")
"FALSE"
>>> discrete_label("O=c1c2cc(-c3ccccc3)sc2nc2n1N=C(c1ccc(Cl)cc1)CS2")
"FALSE"
>>> discrete_label("Cc1cc2c(C)nn(Cc3ccc(Cl)cc3Cl)c2c(C#N)c1C")
"FALSE"
>>> discrete_label("N#Cc1nc(-c2ccco2)oc1N")
"FALSE"
>>> discrete_label("CCCSc1ccc2[nH]c(N3C(=O)/C(=C/c4ccco4)N=C3c3ccccc3)cc2c1")
"FALSE"
>>> discrete_label("N#Cc1c(-c2ccc(F)cc2)c(-c2ccc(F)cc2)nn(CCO)c1=O")
"TRUE"

====

# System: HOP-92
# method: NCI tumour cell line growth inhibition, 48 h
Activity calls are given as the source filed them. Rule as the data show it: active = GI50 up to about 1.1 µM and inactive = higher.
Reported GI50 values follow for various molecules
attribute_measured: GI50

>>> result("COC(=O)[C@H](CCSC)NC(=O)N[C@H](C)c1ccccc1")
"43.5 µM (inactive)"
>>> result("N=C(c1ccccc1)N(O)C1CCCCC1")
"> 100 µM (inactive)"
>>> result("CC(C)OC(=O)Nc1c([N+](=O)[O-])cc(C(F)(F)F)cc1[N+](=O)[O-]")
"33 µM (inactive)"
>>> result("COc1ccc(/C(Cl)=C(\\C=O)c2ccc([N+](=O)[O-])cc2)cc1")
"6.97 µM (inactive)"
>>> result("CC1=C/C(=N\\NS(=O)(=O)c2ccc([N+](=O)[O-])cc2)CC(C)(C)C1")
"10.4 µM (inactive)"
>>> result("O=S(=O)(O)c1cc(/N=N/c2c(O)ccc3ccccc23)ccc1/C=C/c1ccc(/N=N/c2c(O)ccc3ccccc23)cc1S(=O)(=O)O")
"> 100 µM (inactive)"
>>> result("CC(C)(C)N(Cc1ccccc1)C(=O)/C=C\\[S+]([O-])c1ccccc1 (configuration not stated)")
"3.37 µM (inactive)"

====

Measured GI50 by item
# Test system: UO-31
# method: NCI tumour cell line growth inhibition, 48 h
Activity calls are given as the source filed them. Cut-off read from the data, not from the text of the source: active = GI50 up to about 1.1 µM and inactive = higher.
attribute_measured: GI50

>>> result("O=C1CC(c2ccccc2)n2c(nc3ccccc32)N1 (stereo unspecified)")
"> 100 µM (inactive)"
>>> result("O=S(=O)(Nc1ccccc1S(=O)(=O)c1ccccc1)c1ccccc1")
"> 100 µM (inactive)"
>>> result("CSc1c(C(N)=S)c(N)nn1-c1ccccc1")
"> 100 µM (inactive)"
>>> result("CCOC(=O)C1=C(C)N(Cc2ccc(Cl)cc2Cl)C2(O)C=CC(=O)C3C(=O)N(c4ccccc4)C(=O)C132 (stereo unspecified)")
"2.07 µM (inactive)"
>>> result("COC(=O)[C@@]1(C(C)CC(=O)O)CCCCC1=O (stereo partly specified)")
"> 100 µM (inactive)"
>>> result("CCCCCCC(=O)C/C(=N/NC(N)=S)C(=O)NC1C2CC3CC(C2)CC1C3 (stereo unspecified)")
"> 100 µM (inactive)"
>>> result("CC(C)(C)n1c(=O)[nH]n(C2NN=Cc3cccc4cccc2c34)c1=O (stereo unspecified)")
"14.1 µM (inactive)"
>>> result("C=CCc1cccc2cc(C(=O)Nc3nc(C45CC6CC(CC(C6)C4)C5)cs3)c(=O)oc12")
"10.8 µM (inactive)"
>>> result("COc1ccc(C(O)C(c2ccc(OCc3ccccc3)cc2)c2ccc(OCc3ccccc3)cc2)cc1 (stereo unspecified)")
"> 100 µM (inactive)"
>>> result("CC[C@@H](C)[C@@H]1NC(=O)C(C(C)=O)=C1O")
"30.4 µM (inactive)"
>>> result("CCCCCC/C=C1\\CCC(CN2CCOCC2)C1=O (stereo unspecified)")
"14.3 µM (inactive)"
>>> result("Cc1cc(=O)cc2sc3c(C)cccc3nc1-2")
"28.6 µM (inactive)"
>>> result("COc1ccc(CC(COS(=O)(=O)c2ccc(C)cc2)NS(=O)(=O)c2ccc(C)cc2)cc1 (stereo unspecified)")
"12.4 µM (inactive)"
>>> result("CCOCCOC(=O)C1CCC(=O)N1CN(C(C)=O)c1cc(OC)ccc1OC (stereo unspecified)")
"> 100 µM (inactive)"
>>> result("CCCC/C=C1\\CCC(CN2CCCCC2)C1=O (stereo unspecified)")
"32.8 µM (inactive)"
>>> result("COC(=O)[C@H](Cc1ccccc1)NC(=O)[C@H](Cc1ccccc1)NC(=O)[C@@H]1CCCN1C(=O)N[C@H]1C2C=CC(C2)C1C(=O)N1CCC[C@H]1C(=O)N[C@@H](C)C(=O)N[C@H](C(=O)OC)C(C)C (stereo partly specified)")
"> 100 µM (inactive)"
>>> result("CC(C)CC(NC=O)C(=O)NC(Cc1ccccc1)NC(=O)CNC(=O)C(C)NC(=O)OC(C)(C)C (stereo unspecified)")
"> 100 µM (inactive)"
>>> result("O=S1(=O)c2ccccc2NC(=S)N1c1ccccc1")
"36.7 µM (inactive)"
>>> result("COc1ccc(-c2nc3ncccn3c2-c2ccc(SC)cc2)cc1")
"4.46 µM (inactive)"
>>> result("O=C(CSCC(=O)N/N=C\\c1ccc(-c2ccccc2)cc1)N/N=C\\c1ccc(-c2ccccc2)cc1")
"28.5 µM (inactive)"
>>> result("N#Cc1nc(-c2ccco2)oc1N")
"> 10 µM (inactive)"
